- System: MOLM14
- PROCEDURE_TEXT: cell viability relative to vehicle control; higher = less cytotoxic;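 also: after 48 h exposure read by CellTiter-Glo luminescence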
- CONDITION: 10 µM; SRSF2 genotype: SRSF2 P95H/wt
QUANTITY: cell viability (%)
Value expressed in %; do not type the unit.

{"columns": ["COMPOUND", "QUANTITY_UNIT", "cell viability"],
 "data": [
  ["O=c1cc(-c2ccccc2)oc2cc(O[C@@H]3O[C@H](CO[C@@H]4O[C@H](CO)[C@@H](O)[C@H](O)[C@H]4O)[C@@H](O)[C@H](O)[C@H]3O)c(O)c(O)c12", "%", 112]
]}

response.value for CC(=O)OCC(=O)[C@@]1(O)[C@H](C)C[C@H]2[C@@H]3CCC4=CC(=O)C=C[C@]4(C)[C@@]3(F)[C@@H](O)C[C@@]21C [Dexamethasone acetate] (field: cell viability) = 103

response.value for CC(C)(Cc1ccc2ccccc2c1)NC[C@@H](O)COc1cccc(Cl)c1C#N (field: cell viability) = 8.56

response.value for CC(O)c1cc(C(=O)N[C@@H](C)Cn2ccc(-c3ccc(C#N)c(Cl)c3)n2)n[nH]1 (some centres not stated) (field: cell viability) = 98.8

* * *

- Tested on: MOLM14
- PROCEDURE_TEXT: cell viability relative to vehicle control; higher = less cytotoxic
- CONDITION: 10 µM; SRSF2 genotype: SRSF2 wt/wt
QUANTITY: cell viability (%)
Value expressed in %; do not type the unit.

Here's what some known entries look like.
{"columns": ["MOLECULE", "ASSAYED_TARGET", "cell viability [%]"],
 "data": [
  ["Nc1nc(Cl)nc2c1ncn2[C@H]1C[C@H](O)[C@@H](CO)O1", "MOLM14", 0.54],
  ["C/C=C/C=C/C(=O)O", "MOLM14", 101],
  ["CC1CCN(CC[C@H]2CCCN2S(=O)(=O)c2cccc(O)c2)CC1", "MOLM14", 103],
  ["O[C@@H](COc1cccc2ncccc12)CN1CCN([C@@H]2c3ccccc3[C@@H]3[C@H](c4ccccc42)C3(F)F)CC1", "MOLM14", 36.2],
  ["OCCn1cc(-c2ccc3c(c2)CC/C3=N\\O)c(-c2ccncc2)n1", "MOLM14", 94]
]}

Kindly consider the entry below.
response.value for CS(=O)(=O)Nc1ccc([N+](=O)[O-])cc1Oc1ccccc1 [Nimesulide] (field: cell viability) = 103

* * *

- System: K562
- PROCEDURE_TEXT: cell viability relative to vehicle control; higher = less cytotoxic
- CONDITION: 10 µM; SRSF2 genotype: SRSF2 wt/wt
The reader will find reported cell viability values listed item by item below.
Value expressed in %; do not type the unit.

Here's what some known entries look like.
{"columns": ["MOLECULE", "cell viability [%]"],
 "data": [
  ["CCCCCCCCCC(=O)OCC(COC(=O)CCCCCCCCC)OC(=O)CCCCCCCCC [Glyceryl tridecanoate]", 100],
  ["NCCc1c[nH]cn1 [Histamine 2HCl]", 105],
  ["O=C(O)c1ccc2c(c1)nc(Nc1cccc(Cl)c1)c1ccncc12 [cx-4945 (Silmitasertib)]", 63.7]
]}

Kindly consider the entry below.
response.value for COc1cc(C(=O)NC2CCCNC2)cc(OC)c1OC (centres undefined) [Troxipide] (field: cell viability) = 101

* * *

- System: MARIMO
- PROCEDURE_TEXT: cell viability relative to vehicle control; higher = less cytotoxic
- CONDITION: 10 µM; SRSF2 genotype: SRSF2 wt/wt
The reader will find reported cell viability values listed item by item below.
Value expressed in %; do not type the unit.

Here's what some known entries look like.
{"columns": ["MOLECULE", "ASSAYED_TARGET", "QUANTITY_UNIT", "cell viability"],
 "data": [
  ["Oc1cc(CNC(=S)/C=C/c2cc(O)c(O)c(Br)c2)cc(O)c1O", "MARIMO", "%", 23.2],
  ["O=C(Oc1cc(S(=O)(=O)c2ccccc2)ccc1[N+](=O)[O-])c1ccc(Cl)cc1", "MARIMO", "%", 103]
]}

Kindly consider the entry below.
Record CC/C(=C(\c1ccc(O)cc1)c1ccc(OCCN(C)C)cc1)c1ccccc1 [4-Hydroxytamoxifen] has MARIMO cell viability equal to 53.5

* * *

- Test system: MARIMO
- PROCEDURE_TEXT: cell viability relative to vehicle control; higher = less cytotoxic
- CONDITION: 10 µM; SRSF2 genotype: SRSF2 P95H/wt
Structures can show the parent of a compound that is named as a salt.
The reader will find reported cell viability values listed item by item below.
// return the numeric value with its unit appended

{"columns": ["MOLECULE", "cell viability"],
 "data": [
  ["COc1cc(C=O)ccc1OC(C)=O", "104%"],
  ["O=C1NC(=O)C(c2ccccc2[N+](=O)[O-])=C1Nc1ccc(O)c(Cl)c1", "98.5%"],
  ["C[C@H](CCC(=O)O)[C@H]1CC[C@H]2[C@@H]3[C@H](O)C[C@@H]4C[C@H](O)CC[C@]4(C)[C@H]3CC[C@]12C", "104%"],
  ["C[C@H](NC(=O)CCc1nc2ccccc2c(=O)[nH]1)c1ccccc1", "106%"],
  ["O=C1NC(=O)C(=Cc2ccc(-c3ccc(F)cc3)o2)S1 (stereo in doubt)", "93.1%"],
  ["CNC(=O)c1cc(Oc2ccc(NC(=O)Nc3ccc(Cl)c(C(F)(F)F)c3)c(F)c2)ccn1", "29.2%"],
  ["CC1(C)C[C@@H]1C(=O)N/C(=C\\CCCCSC[C@H](N)C(=O)O)C(=O)O", "97%"],
  ["O=S(=O)(c1ccccc1)c1cnc2c(N3CCNCC3)cccc2c1", "95%"]
]}

Kindly consider the entry below.
response.value for Cc1cc(O)c(-c2ccc([C@@H](C)CN)cc2)c2c1[nH]c(=O)c1sccc12 [OTS514 hydrochloride] (field: cell viability) = 3.37%

* * *

- Test system: K562
- PROCEDURE_TEXT: cell viability relative to vehicle control; higher = less cytotoxic
- CONDITION: 10 µM; SRSF2 genotype: SRSF2 wt/wt
Where a name gives a salt, the structure may show the parent alone.
QUANTITY: cell viability (%)
Value expressed in %; do not type the unit.

Here's what some known entries look like.
{"columns": ["MOLECULE", "QUANTITY_UNIT", "cell viability"],
 "data": [
  ["COc1ccc(CCC(=O)Nc2nc3ccc(Cl)cc3s2)cc1OC", "%", 92],
  ["O=C(O)c1cn(-c2ccc(F)cc2)c2cc(N3CCNCC3)c(F)cc2c1=O [Sarafloxacin HCl]", "%", 90.9],
  ["OC[C@H]1O[C@@H](c2ccc(Cl)c(Cc3ccc(O[C@H]4CCOC4)cc3)c2)[C@H](O)[C@@H](O)[C@@H]1O", "%", 94.4],
  ["COC(=O)C=Cc1ccc(O)cc1 [Methyl 4-hydroxycinnamate]", "%", 82.3],
  ["C=C1CC[C@H]2O[C@]2(C)CC[C@@H]2[C@@H]1CC2(C)C [Caryophyllene oxide]", "%", 105]
]}

response.value for CC(=O)[O-].[K+] [Potassium acetate] (field: cell viability) = 103

response.value for O=C1NC(=O)/C(=C/c2cccc(C(F)(F)F)c2)S1 (field: cell viability) = 110

response.value for COc1cc2c(Nc3ccc(NC(=O)c4ccccc4)cc3)ncnc2cc1OCCCN1CCOCC1 (field: cell viability) = 79.4

response.value for O=C1CCc2ccc(OCCCCN3CCN(c4cccc(Cl)c4Cl)CC3)cc2N1 (field: cell viability) = 93.2

response.value for CCc1c(Cl)c(O)c(Cl)c(O)c1C(=O)O[C@H]1[C@H](O)[C@H](OC)[C@H](OC/C2=C\C=C\C[C@H](O)/C(C)=C/[C@H](CC)[C@@H](O[C@@H]3OC(C)(C)[C@@H](OC(=O)C(C)C)[C@H](O)[C@@H]3O)/C(C)=C/C(C)=C/C[C@@H]([C@@H](C)O)OC2=O)O[C@@H]1C (field: cell viability) = 78.3

* * *

- System: OCI-AML2
- PROCEDURE_TEXT: cell viability relative to vehicle control; higher = less cytotoxic
- CONDITION: 10 µM; SRSF2 genotype: wt/wt
Classify: True when cell viability is strictly less than 70%; False when cell viability is not.

// below: answered molecules
{"columns": ["MOLECULE", "CATEGORY_LABEL"],
 "data": [
  ["CC(=O)OC1CC2(C)C(CC(O)C3C4(C)CCC(O)C(C)C4CCC32C)C1=C(CCC=C(C)C)C(=O)O (stereo unspecified)", "False"],
  ["C/C=C(/C)C(=O)O[C@H]1Cc2cc3ccc(=O)oc3cc2OC1(C)C [Decursinol angelate]", "False"],
  ["O=C(CCCN1CCC(O)(c2ccc(Cl)cc2)CC1)c1ccc(F)cc1", "False"],
  ["CCCNC(=O)c1cn2ncnc(Nc3cc(C(=O)NC4CC4)ccc3C)c2c1C", "False"],
  ["CO[C@H]1O[C@@H]2O[C@@]3(C)CC[C@H]4[C@H](C)CC[C@@H]([C@H]1C)[C@@]24OO3", "False"]
]}

Does this molecule meet the criterion cell viability < 70%? O=C(O)CCNc1cc(N2CCc3ccccc3CC2)nc(-c2ccccn2)n1 False

Does this molecule meet the criterion cell viability < 70%? CC(=O)[C@H]1CC[C@H]2[C@@H]3CC=C4C[C@@H](O)CC[C@]4(C)[C@H]3CC[C@]12C False

Does this molecule meet the criterion cell viability < 70%? CC(C)Oc1ccc(-c2nn([C@@H](C)c3oc4ccc(F)cc4c(=O)c3-c3cccc(F)c3)c3ncnc(N)c23)cc1F False

Does this molecule meet the criterion cell viability < 70%? COc1cc(N2CCN(C)CC2)ccc1Nc1nccc(-c2cn(C)c3cnccc23)n1 True

Does this molecule meet the criterion cell viability < 70%? CC(C)(C)c1cc(NC(=O)Nc2ccc(-c3cn4c(n3)sc3cc(OCCN5CCOCC5)ccc34)cc2)no1 True
